Literature compilation of IC50 measurements on DNA-PK (Homo sapiens, UniProt P78527).
MEASURED METRIC: IC50 (nM)

Recorded IC50, per entry:
SMILES TEXT	MEASURED METRIC	REPORTED
Oc1cnc2c(Cl)c(N3CCOCC3)nc(O[C@H]3CC[C@@H](n4ccnc4)CC3)c2c1	IC50	242
Cc1cnc(NCC2CCN(c3nc(N4CCOCC4)cc4ncccc34)CC2)nc1	IC50	39

a: c1cnc2cc(N3CCOCC3)nc(O[C@H]3CC[C@@H](c4nnc[nH]4)CC3)c2c1
b: CC(C)NCCOc1ncc(-c2cc3c(cc2F)ncc2c3[C@]3(C[C@H](OCc4ccccc4)C3)C(=O)N2C)cc1NS(C)(=O)=O
c: Cc1cc2ncnn2cc1Nc1ncc2c(n1)n(N1CC3CCC(C1)O3)c(=O)n2C
Request: Place the items in sequence of falling IC50. In plain terms: list the labels in the order you were asked to.
Response: a, c, b
(a: 2 nM, c: 1 nM, b: 0.32 nM)

a: Cc1cc2ncnn2cc1Nc1ncc2c(n1)n(N1CCOC3(CCC3)C1)c(=O)n2C
b: Cc1cn2ncnc2cc1Nc1ncc2c(n1)n(N1C3CCC1COC3)c(=O)n2C
Request: // select label with min value of measured IC50 from [ a , b ] To answer, give the label that identifies your chosen option.
Response: b

----------
Literature compilation of IC50 measurements on DNA-PK (Homo sapiens, UniProt P78527).
MEASURED METRIC: IC50 (nM)

1: Cc1nccnc1C(O)c1cc(-c2cnnc3c(F)c(N4CCOCC4)cc(F)c23)c(F)cc1Cl (single isomer, unassigned)
2: Oc1cnc2cc(N3CCOCC3)nc(O[C@H]3CC[C@@H](c4cccs4)CC3)c2c1
3: Cc1cc2nncn2cc1Nc1ncc2c(n1)n(N1C3CCC1COC3)c(=O)n2C
4: c1cnc(NCCCOc2nc(N3CCOCC3)cc3ncccc23)nc1
Request: # rank above entries by IC50 (max first, min last) In plain terms: list the labels in the order you were asked to.
Response: 4, 2, 1, 3

----------
Literature compilation of pIC50 measurements on DNA-PK (Homo sapiens).
pIC50: −log10 of the molar value.
MEASURED METRIC: pIC50

Recorded pIC50, per entry:
COMPOUND	pIC50
c1cnc2cc(N3CCOCC3)nc(N3CCC(c4ncc[nH]4)CC3)c2c1	6.65
NC(=O)c1ccnc(NCC2CCN(c3nc(N4CCOCC4)cc4ncccc34)CC2)n1	7.82
COc1ccc(C(O)c2cc(-c3ccnc4c(Cl)c(N5CCOCC5)ccc34)c(F)cc2Cl)nn1 (single isomer, unassigned)	6.51
Cc1cc(C)nc(NCC2CCN(c3nc(N4CCOCC4)cc4ncccc34)CC2)n1	6.90
CNC(=O)N1CC(COc2nc(N3CCOCC3)cc3ncccc23)C1	6.77

1: CC(C)(C)OC(=O)N1CCN(c2nc(N3CCOCC3)cc3ncccc23)CC1
2: Cc1nc2nccn2cc1Nc1ncc2c(n1)n(N1CC3CCC(C1)O3)c(=O)n2C
3: COc1ccc(C(O)c2cc(-c3ccnc4cc(N5CCOCC5)ccc34)c(F)cc2Cl)nn1 (single isomer, unassigned)
Request: Arrange these 3 compounds in increasing order of pIC50. In plain terms: list the labels in the order you were asked to.
Response: 1, 2, 3
(1: 6.80, 2: 8.00, 3: 9.30)
